// data source = PubChem BioAssay (EPA / NIEHS)

Read-out: TIMP metallopeptidase inhibitor 2 (TIMP2), TIMP2 (gene 7077)
Assay: BSK_KF3CT_TIMP2: BioMAP Diversity Plus: KF3CT Assay for TIMP metallopeptidase inhibitor 2 (TIMP2) Biomarker Activity (AID 2283071)
Settings: primary human keratinocytes with fibroblasts; actives raise or lower the signal
Calls of active or inactive are those of the source. How the source made its calls: active means hit-call score of the fitted dose curve at least 0.9, where 1 is the maximum; inactive means score below 0.9.
MEASUREMENT KIND: outcome

SMILES CODE: C=C(C)C(=O)OCC(F)(F)C(F)(F)C(F)(F)C(F)F
MEASUREMENT KIND: outcome
MEAS VALUE: inactive
--
SMILES CODE: CN(C(=O)C(F)(F)C(F)(F)C(F)(F)F)[Si](C)(C)C
MEASUREMENT KIND: outcome
MEAS VALUE: inactive
--
SMILES CODE: O=C(O)C(F)(F)C(F)(F)C(F)(F)OC(F)(C(F)(F)F)C(F)(F)F
MEASUREMENT KIND: outcome
MEAS VALUE: inactive
--
SMILES CODE: O=C(O)C(F)(F)OC(F)(F)C(F)(F)OC(F)(F)C(F)(F)OC(F)(F)F
MEASUREMENT KIND: outcome
MEAS VALUE: inactive
--
SMILES CODE: CCN(CC)c1ccc(C=O)cc1
MEASUREMENT KIND: outcome
MEAS VALUE: inactive
--
SMILES CODE: Cc1ccc(O)c(-n2nc3ccccc3n2)c1
MEASUREMENT KIND: outcome
MEAS VALUE: inactive
